Target: human TLR7 (Homo sapiens, UniProt Q9NYK1)
Sequence (Q9NYK1 27-1049): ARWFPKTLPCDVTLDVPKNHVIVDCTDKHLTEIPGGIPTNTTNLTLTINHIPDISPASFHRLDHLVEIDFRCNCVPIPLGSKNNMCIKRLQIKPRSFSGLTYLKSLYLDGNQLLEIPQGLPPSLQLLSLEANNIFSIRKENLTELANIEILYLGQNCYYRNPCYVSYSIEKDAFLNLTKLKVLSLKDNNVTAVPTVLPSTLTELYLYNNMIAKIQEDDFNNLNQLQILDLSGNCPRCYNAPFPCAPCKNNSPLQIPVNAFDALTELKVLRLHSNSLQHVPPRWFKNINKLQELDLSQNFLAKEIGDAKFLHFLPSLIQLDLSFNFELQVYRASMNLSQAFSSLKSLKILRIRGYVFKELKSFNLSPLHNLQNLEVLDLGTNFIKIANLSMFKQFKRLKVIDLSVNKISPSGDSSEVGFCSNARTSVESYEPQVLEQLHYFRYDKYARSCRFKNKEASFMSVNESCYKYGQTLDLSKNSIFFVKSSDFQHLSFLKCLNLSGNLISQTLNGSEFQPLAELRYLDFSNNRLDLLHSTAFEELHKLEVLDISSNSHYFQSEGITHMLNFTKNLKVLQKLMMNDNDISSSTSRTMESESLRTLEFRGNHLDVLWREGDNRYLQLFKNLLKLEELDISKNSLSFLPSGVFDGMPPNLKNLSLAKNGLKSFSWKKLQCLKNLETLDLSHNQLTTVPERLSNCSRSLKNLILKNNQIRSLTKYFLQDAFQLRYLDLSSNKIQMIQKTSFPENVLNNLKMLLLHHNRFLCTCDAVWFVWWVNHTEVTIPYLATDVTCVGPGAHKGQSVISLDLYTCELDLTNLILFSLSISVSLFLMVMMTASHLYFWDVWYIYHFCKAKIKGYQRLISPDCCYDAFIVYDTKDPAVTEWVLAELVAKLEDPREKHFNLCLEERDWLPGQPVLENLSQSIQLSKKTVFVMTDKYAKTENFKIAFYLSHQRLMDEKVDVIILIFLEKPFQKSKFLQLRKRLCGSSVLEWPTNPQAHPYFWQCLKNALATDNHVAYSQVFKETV
Assay: TLR7 inhibition reporter assay (HEK-Blue cells, SEAP reporter, gardiquimod stimulation)
Conditions: HEK-Blue cells overexpressing human TLR7, gardiquimod 7.5 μM
pIC50: −log10 of the molar value.
Measured metric: pIC50

compound="COc1ccc(-c2[nH]c3ccc(C4CCN(C(=O)CN5CCC[C@@H](C(=O)N6CCN(CCN7CCCC7)CC6)C5)CC4)cc3c2C(C)C)cc1OC [Example 307]" subject_of_test="human TLR7 (Homo sapiens, UniProt Q9NYK1)" value_reported=7.28
compound="COc1ccc(-c2[nH]c3ccc(C4CCN(C(=O)COC5CCN(C)CC5)CC4)cc3c2C(C)C)cc1OC [Example 315]" subject_of_test="human TLR7 (Homo sapiens, UniProt Q9NYK1)" value_reported=6.27
compound="COc1ccc(-c2[nH]c3ccc(C4CCN(CC(=O)NCCCCN5CCCC5)CC4)cc3c2CC(F)(F)F)cc1OC [Example 388]" subject_of_test="human TLR7 (Homo sapiens, UniProt Q9NYK1)" value_reported=8.05
compound="COc1ccc(-c2[nH]c3ccc(C4CCN(C5CCCNCC5)CC4)cc3c2C)cc1OC (stereo not shown) [Example 103]" subject_of_test="human TLR7 (Homo sapiens, UniProt Q9NYK1)" value_reported=6.46
compound="CCc1c(-c2ccc(OC)c(OC)c2)[nH]c2ccc(C3CCN(C4CCN(Cc5csnn5)CC4)CC3)cc12 [Example 130]" subject_of_test="human TLR7 (Homo sapiens, UniProt Q9NYK1)" value_reported=5.38
compound="CCC(CC)CN1CCC(N2CCC(c3ccc4[nH]c(-c5ccc(OC)c(OC)c5)c(C)c4c3)CC2)CC1 [Example 54]" subject_of_test="human TLR7 (Homo sapiens, UniProt Q9NYK1)" value_reported=6.23
compound="COc1ccc(-c2[nH]c3ccc(C4CCN(Cc5cnc(C)[nH]5)CC4)cc3c2C(C)C)cc1OC [Example 266]" subject_of_test="human TLR7 (Homo sapiens, UniProt Q9NYK1)" value_reported=7.32

* * *

Target: human TLR7 (Homo sapiens)
Assay: TLR7 inhibition reporter assay (HEK-Blue cells, SEAP reporter, gardiquimod stimulation)
Conditions: HEK-Blue cells overexpressing human TLR7, gardiquimod 7.5 μM
Labelling: IC50 reported below 1000 nM becomes criterion met; at or above becomes criterion not met.

compound=COc1ccc(-c2[nH]c3ccc(C4CCN(C5CCN(C6CCCCC6)CC5)CC4)cc3c2C)cc1OC assigned_class="criterion met"
compound=COc1ccc(-c2[nH]c3ccc(C4CCN(C5CC(C)(C)N(C)C(C)(C)C5)CC4)cc3c2C)cc1OC assigned_class="criterion not met"
compound=COc1ccc(-c2[nH]c3ccc(C4CCN(C(=O)CNCC(N)=O)CC4)cc3c2C(C)C)cc1OC assigned_class="criterion met"
compound=COc1ccc(-c2[nH]c3ccc(C4CCN(Cc5cnc(C)[nH]5)CC4)cc3c2C)cc1OC assigned_class="criterion not met"
compound=COc1ccc(-c2[nH]c3ccc(C4CCN(C(=O)Cc5c[nH]cn5)CC4)cc3c2CC(F)(F)F)cc1OC assigned_class="criterion met"
compound="COc1ccc(-c2[nH]c3ccc(C4CCN(CC5CCCCN5C)CC4)cc3c2C)cc1OC (stereo not drawn)" assigned_class="criterion not met"
compound=COc1ccc(-c2[nH]c3ccc(C4CCN(C5CCN(CCC(F)(F)F)CC5)CC4)cc3c2C)cc1OC assigned_class="criterion not met"
compound=CCc1c(-c2ccc(OC)c(OC)c2)[nH]c2ccc(C3CCN(C(=O)C4CCNCC4)CC3)cc12 assigned_class="criterion met"
compound=CCc1c(-c2ccc(OC)c(OC)c2)[nH]c2ccc(C3CCN(C4CCN(Cc5ccn(C)n5)CC4)CC3)cc12 assigned_class="criterion met"
